- test_target: T1, IFF05588
- T1 chain: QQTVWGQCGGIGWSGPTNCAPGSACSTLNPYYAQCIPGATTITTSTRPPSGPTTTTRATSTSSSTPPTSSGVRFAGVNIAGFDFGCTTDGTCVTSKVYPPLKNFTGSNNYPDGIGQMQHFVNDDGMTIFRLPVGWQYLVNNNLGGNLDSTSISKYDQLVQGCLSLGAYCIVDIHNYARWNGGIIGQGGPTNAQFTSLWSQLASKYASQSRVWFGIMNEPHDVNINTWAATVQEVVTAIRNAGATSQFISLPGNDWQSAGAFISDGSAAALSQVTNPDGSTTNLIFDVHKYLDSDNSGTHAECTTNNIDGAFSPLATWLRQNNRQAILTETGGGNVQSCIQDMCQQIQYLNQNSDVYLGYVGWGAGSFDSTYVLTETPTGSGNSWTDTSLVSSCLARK
property: Relative late peak area (centered, scaled, averaged over 5, 10 and 15 min)
No unit in the answer, please; the number alone is enough.

protein: IFF21358 (protein) GNPDKPEVNPHIPYDRLENDLRNNLHPTQSTWDYWGAGWIPQGCKDLANTYHLNPADFTIFNVHYTDCSASWTFCRHKNAGASEIDMIDIFGRLPVRMRSYLRHLVATPGLNDGAAAWTWSSGDCVVESAPNLATLVHEVSHSLDWHALPQYQQPFSSSSIWQDNYNQDSATPTGYGRTNWMENFAETGMVGVYDKAVPGGIGNIEPNWNAIFHQYATYQGYLGDKIIAGGSCANRFDDTPPVAMSNSAKFKITSAKPETGIDFAGKNITQIIPSKEFEGLYIKG
result_number: -1.04
//
protein: IFF21338 (protein) NLNKPVITPNFPGNGLASLGPGLMNNLAPTHSTWDDWGAGWIPSDCKSMVQGAGFSPNDIIPFNIHYDDCAQTWTFCRHKNSPLSEIQILDIFGRLPVRMRQFVRHLVFVPGNKSAGSNGDNVLMVGDVDVTVFAHEIGHSLDSHAFDPSYGVPFSTGNVWVSNYNLDSAVPDPYAQSSQQENFAQQTVVSLYDKVVPGGIGTIQPNWQAIFHQYATLEGYIGNVIIPGGTCTHRLTDSAPVTMSGSKKSRRALGPKPKVSLSPEVKEIEAIPMESSITMTSFDEHGKPNGTYVIHL
result_number: 1.11
//
protein: IFF21332 (protein) ALNKPIINPQFPNGGLGSLGPGLMQHLQPAKRTWDKWGPGWIPEDCKNLAKSNNFSPFDITPFNIHYEDCPDSWVFCRHKDSPLSETAMIDMFGRMPVKMRSYIRHIIALPGTRSAGSAGDNIQMNGDCEITVFVHETGHSLDSHAFDPKYGAPFSNSKVWLDNYNQDSAVCDGYAQSSQQENLAQETVVGLFDKVVPGGVGTIQPNWKAIFHQYATVQGYLGDQILPGGTCSHRLTNSKPVPMGDSKKSRRGLGPAPDVSLSAHVTEIEPIAMGDSIVLTQYNDGGDAISKREVTLN
result_number: 0.3

Could you now look at the following protein, please?
# Relative late peak area (centered, scaled, averaged over 5, 10 and 15 min) (protein: IFF21365 (protein) DDTLSKPALTDNLDYLLDGNVASLPSNGGPYWGKWEDGLMPADCKSIAEDQGLNPTDFEVWDIFFDDCQDGWSFCRHKDSADSFETLVDTFGRVPVRMRSWVRHVLTIPGDNWAFNSNGNICFSGTTSQNLDVALHETGHSLDLLGAYGDGALSSSQEWLDAYNADSNVPDNYARSNQVENVAQNTVVAVYDKNVPGGFPGVQTDYAKIQNQYTLVEDKAGDQIVPGGTCDRHLENSETVPMSGSSAKRDIRIKGRAVGAGAVTHDWKFKGTYSNIVTDFEPFNSKDFHH ) is 1.04
